Give cell viability for every item shown.
system: P12-Ichikawa; assay: cell viability relative to DMSO control; higher = less cytotoxic; conditions: RPMI 5 mM glucose + 10% FBS; 48 h; 46.1 µM
Answer in %, number only, no unit symbol.

Given O=C(NOCC(O)CO)c1cc(Br)c(F)c(F)c1Nc1ccc(I)cc1F (centres undefined) , state its recorded cell viability.
54.5

Look up cell viability for this compound: CC/C(=C(/c1ccc(O)cc1)c1ccc(OCCNC)cc1)c1ccccc1
42

Query (compound): Cc1ccccc1C(C(=O)NC1CCCCC1)N(C(=O)Cn1ccnc1C)c1cccc(F)c1 (centres undefined) ; field requested: cell viability
97.1

Reported cell viability for CC(C)NCC(O)COc1ccc(COCCOC(C)C)cc1 (centres undefined) : what is it?
115

I'd like to know its cell viability. The compound in question is CCC[C@H](NC(=O)/C(C#N)=C/c1cccc(Br)n1)c1ccccc1
5.26

Quick check: cell viability of CC1(C)Cc2c(-c3ccccc3)c(-c3ccc(Cl)cc3)c(CC(=O)O)n2C1 ?
83.5

Returns the measured cell viability for the input compound. Input: CCCc1nc(C(C)(C)O)c(C(=O)O)n1Cc1ccc(-c2ccccc2-c2nn[nH]n2)cc1
109

// cell viability lookup, key: C[C@](O)(COc1ccc(C#N)cc1)C(=O)Nc1ccc(C#N)c(C(F)(F)F)c1
80.5

Quick one: cell viability of CC[C@H](CC[C@@H](C)[C@H]1CC[C@H]2[C@@H]3C\C=C/4C[C@@H](O)CC[C@]4(C)[C@H]3CC[C@]12C)C(C)C ?
92.2

---

tested on: NOMO1; assay: cell viability relative to DMSO control; higher = less cytotoxic; conditions: RPMI 5 mM glucose + 10% dialyzed FBS; 48 h; 0.0211 µM
MEASURE: cell viability (%)
All answers are understood in %, so give the number only.

// lookup cell viability for COc1ccc(-c2cc3nccn3c(Nc3ncccc3C(N)=O)n2)cc1OC
95.2

What measured cell viability goes with O=C(NOCC(O)CO)c1cc(Br)c(F)c(F)c1Nc1ccc(I)cc1F (stereo not given) ?
58.1

Which measured cell viability value corresponds to CC1(C)O[C@@H]2C[C@H]3[C@@H]4CCC5=CC(=O)C=C[C@]5(C)[C@@]4(F)[C@@H](O)C[C@]3(C)[C@]2(C(=O)CO)O1 ?
127

Returns the measured cell viability for the input compound. Input: N=C(CCSCc1csc(N=C(N)N)n1)N[S+](N)(=O)[O-]
92.1

Param item = CC(=O)N(C)c1cccc(-c2ccnc3c(C(=O)c4cccs4)cnn23)c1 ; retrieve measured cell viability.
73.7

---

tested on: NOMO1; experiment: cell viability relative to DMSO control; higher = less cytotoxic; settings: HPLM + 10% dialyzed FBS; 48 h; 5.12 µM
Answer each item with its documented cell viability.
Value expressed in %; do not type the unit.

What value of cell viability has been recorded for this entry: CC1=C(/C=C/C(C)=C/C=C/C(C)=C/C=C/C=C(C)/C=C/C=C(C)/C=C/C2=C(C)CCCC2(C)C)C(C)(C)CCC1
118

Query (compound): CCC1(C)CC(=O)NC1=O (centres undefined) ; field requested: cell viability
105

Sample Cc1nc(NC(=O)N2CCC[C@H]2C(N)=O)sc1-c1ccnc(C(C)(C)C(F)(F)F)c1 — what was its cell viability?
46.2

I'd like to know its cell viability. The compound in question is CCc1cncnc1N1CCN(Cc2nc3cc(C(F)(F)F)ccc3[nH]2)CC1
107

Any idea what its cell viability is? The compound is Cc1cn2c(-c3cn[nH]c3)cnc2c(Nc2ccc(C(=O)N3CCNCC3)cc2F)n1
91.2

Item CC1(C)CCC[C@]2(C)[C@H]3CC(=O)O[C@]3(C)CC[C@@H]12 has what recorded cell viability?
126

Which cell viability reading was recorded for the compound C#Cc1cccc(Nc2ncnc3cc(OCCOC)c(OCCOC)cc23)c1 ?
79.3

Quick check: cell viability of CC1(C)CC(=O)c2c(C(F)(F)F)nn(-c3ccc(C(N)=O)c(NC4CCC(O)CC4)c3)c2C1 (centres undefined) ?
15.1

Consider the compound shown here: CC(=O)O.Cc1c(-c2ccc(O)cc2)n(Cc2ccc(OCCN3CCCCCC3)cc2)c2ccc(O)cc12 What is its recorded cell viability?
106

What measured cell viability goes with COc1ccc(C[C@@H](C)[C@@H](C)Cc2ccc(OC)c(OC)c2)cc1OC ?
16.6

Bench note: what cell viability did CC[C@H](CC[C@@H](C)[C@H]1CC[C@H]2[C@@H]3C\C=C/4C[C@@H](O)CC[C@]4(C)[C@H]3CC[C@]12C)C(C)C show?
95.6

What value of cell viability has been recorded for this entry: COC1=C(N2CCNC(C)C2)C(=CC3=C1N(\C=C(C(O)=O)/C3=O)C4CC4)F (centres undefined)
95.2

What value of cell viability has been recorded for this entry: Oc1ccc2c3c1O[C@H]1c4[nH]c5c(c4C[C@@]4(O)[C@@H](C2)N(CC2CC2)CC[C@]314)C[C@@]1(O)[C@H]2Cc3ccc(O)c4c3[C@@]1(CCN2CC1CC1)[C@H]5O4
129

Quick one: cell viability of Cc1ccc(NC(=O)c2ccc(CN3CCN(C)CC3)cc2)cc1Nc1nc(-c2cccnc2)cs1 ?
76.8

Name the recorded cell viability for COC(=O)Nc1nc2cc(C(=O)c3cccs3)ccc2[nH]1 .
57.7

Param item = OC1=C(O)C2=C(\C=C/C(=O)O2)C=C1 ; retrieve measured cell viability.
111

Sample CN(C)CCOc1cc(-c2cn[nH]c2)ccc1NC(=O)C1COc2ccccc2O1 (centres undefined) — what was its cell viability?
122

Consider the compound COc1c(C)cnc(Cn2cnc3c(Cl)nc(N)nc32)c1C and give its measured cell viability.
19.8

Fill in the blank: the reported cell viability of C/C=C(/C)C(=O)O[C@H]1C(C)=C2[C@H]([C@@H]1OC(=O)CCCCCCC)[C@@](C)(OC(C)=O)C[C@H](OC(=O)CCC)[C@@]1(O)[C@H]2OC(=O)[C@@]1(C)O is ____.
2.9

Requested field: cell viability. Item: O=C(OC)[C@]12CC[C@@]3(C)[C@]4(C)CC[C@H]5[C@@](C)(C)C(=O)C(=C[C@]5(C)C4=CC(=O)[C@@H]3[C@@H]2C[C@](C)(C)CC1)C#N
110

Item [NH2][Pt]1([NH2])[O]CC(=O)[O]1 has what recorded cell viability?
85.9

If you can, please state the reported cell viability value of NC1(Cc2ccc(Cl)cc2)CCN(c2ncnc3[nH]ccc23)CC1 .
82

Data request, read-out cell viability, for CC/C(=C(/c1ccc(O)cc1)c1ccc(OCCNC)cc1)c1ccccc1
90.8

Recorded cell viability for COC1CCC(CC1)N(C(=O)C2CCC(C)CC2)C3=C(SC(=C3)\C4=C\CCCC4)C(O)=O (centres undefined) , please?
106

Quick one: cell viability of CN1[C@@H]2CC(OC(=O)[C@@H](CO)c3ccccc3)C[C@H]1[C@H]1O[C@H]12 (some centres undefined) ?
93.8

What cell viability value was documented for this compound, FC(F)(F)c1ccc(/C=C/c2nc(COc3ccc(CCCCn4ccnn4)cc3)co2)cc1 ?
27.7

Could you share which cell viability value was measured for CC[C@H](CC#N)OC(=O)N[C@@H](C)c1cccc(NC(=O)Nc2ccc(-c3cnco3)c(OC)c2)c1 ?
38.9

Suppose we examine the compound O=NN(CCCl)C(=O)NC1CCCCC1 ; what cell viability value has been reported?
111

Fill in the blank: the reported cell viability of CCCCCCCCCCCCCCCCCCCCCCO is ____.
147
